system-tested: T1, recombinant human EGFR extracellular domain with 6xHis (human, UniProt P00533 25-645)
T1 construct: In-house produced; also called 6xHis EGFR ECD; soluble human EGFR ECD; not shown: 6xHis tag
protocol-summary: SPR competition, competitor 1030corr
quantity-name: % inhibition (%)
Give a bare numeral; the unit % is implied.

Before answering, review these 2 worked examples.
1) antibody 1261 (antibody, human IgG1, kappa, V domains shown, Chimeric IgG1 kappa) VH: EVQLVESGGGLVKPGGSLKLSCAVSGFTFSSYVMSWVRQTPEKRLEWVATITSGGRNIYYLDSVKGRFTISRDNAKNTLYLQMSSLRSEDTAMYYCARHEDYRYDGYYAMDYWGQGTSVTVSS VL: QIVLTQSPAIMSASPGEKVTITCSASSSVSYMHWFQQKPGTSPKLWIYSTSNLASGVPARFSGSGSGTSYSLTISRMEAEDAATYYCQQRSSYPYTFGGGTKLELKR = -6
2) antibody 1344 (antibody, human IgG1, kappa, V domains shown, Chimeric IgG1 kappa) VH: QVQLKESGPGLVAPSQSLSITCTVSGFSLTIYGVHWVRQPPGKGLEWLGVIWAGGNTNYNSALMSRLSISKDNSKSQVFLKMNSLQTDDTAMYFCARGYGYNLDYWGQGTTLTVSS VL: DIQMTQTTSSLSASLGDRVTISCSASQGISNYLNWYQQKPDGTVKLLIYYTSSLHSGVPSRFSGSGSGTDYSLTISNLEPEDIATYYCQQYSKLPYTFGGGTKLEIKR = 31

Now turn to the next binder.
Lab note: measured % inhibition of antibody 1260 (antibody, human IgG1, kappa, V domains shown, Chimeric IgG1 kappa) VH: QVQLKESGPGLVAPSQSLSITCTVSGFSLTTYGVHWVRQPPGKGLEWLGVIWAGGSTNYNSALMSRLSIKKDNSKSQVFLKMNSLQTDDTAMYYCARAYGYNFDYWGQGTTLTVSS VL: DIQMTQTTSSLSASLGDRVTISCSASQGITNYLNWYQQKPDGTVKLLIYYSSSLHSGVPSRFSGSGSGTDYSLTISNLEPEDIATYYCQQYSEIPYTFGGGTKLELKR was 18

These measurements were taken from patent US20110135636A1.
